B1: SPATS1 (parent)
chain: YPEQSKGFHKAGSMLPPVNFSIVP

Variants of: B1
Assay: protein stability index of a GFP-peptide fusion (GPS, HEK-293T) (PSI 1-6); higher = more stable;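 also: lentivirally expressed fusions sorted by FACS into six bins by GFP to DsRed ratio, PSI derived from sequencing read proportions per bin multiplied by bin number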
Settings: c terminus: a fixed tail appended
ATTRIBUTE MEASURED: protein stability index
Please reply with the number alone, leaving off any unit.

P16C : 1.97
K10H : 1.44

What does the data say about its protein stability index? Entry: `Q4R` 1.79

Next: `G7I` 2.34

And the next one, `K10C` ? 3.44

`M14P` , same question. 2.07

Can you handle `P17I` next? 1.75

Where these numbers come from: the supplement of paper PMC10567573
